Value source: patent US10577349B2

Experiment: Hepatic Microsome Stability Human
Assay type: in vitro ADME
Field: Hepatic Microsome Stability (% Remaining at 1 hr) Human. Provide a value for each of the molecules that follow.
Note: unit % Remaining is implicit; provide only the numeric part.

Hepatic Microsome Stability (% Remaining at 1 hr) Human reported for this molecule O=C(/C=C/c1cncc(F)c1)c1c(-c2ccccc2)c2cc(Cl)ccc2[nH]c1=O [Compound 38] : 24.12

Hepatic Microsome Stability (% Remaining at 1 hr) Human reported for this molecule O=C(/C=C/c1ccccc1)c1c(C2CCCCC2)c2cc(Cl)ccc2[nH]c1=O [Compound 12] : 59.85

Hepatic Microsome Stability (% Remaining at 1 hr) Human reported for this molecule O=C(/C=C/c1nc2ccccc2[nH]1)c1c(O)nc2ccc(Cl)cc2c1-c1ccccc1 [BI-69A11, reference compound] : 68.24

Hepatic Microsome Stability (% Remaining at 1 hr) Human reported for this molecule O=C(/C=C/c1nc2cc(Cl)ccc2[nH]1)c1c(-c2ccccc2)c2cc(Cl)ccc2[nH]c1=O [Compound 62] : 89.89

====

Field: IC50. Provide a value for each of the molecules that follow.
Target: EmCV Cap-independent translation
Assay: In vitro translation assay, FF-EmCV-Ren construct, cap-independent (Ren luciferase)

IC50 reported for this molecule O=C(/C=C/c1cncc(F)c1)c1c(-c2ccc(C(F)(F)F)cc2)c2cc(Cl)ccc2[nH]c1=O [Compound 83] : 2 to 10 µM

IC50 reported for this molecule COc1ccc(/C=C/C(=O)c2c(-c3ccccc3)c3cc(Cl)ccc3[nH]c2=O)c(F)c1 [Compound 43] : > 20 µM

IC50 reported for this molecule O=C(/C=C/c1cccnc1)c1c(-c2ccccc2)c2cc(Cl)ccc2[nH]c1=O [Compound 32] : 2 to 10 µM

IC50 reported for this molecule Cc1ccnc(/C=C/C(=O)c2c(-c3ccccc3)c3cc(Cl)ccc3[nH]c2=O)c1 [Compound 70] : 2 to 10 µM

IC50 reported for this molecule O=C(/C=C/c1ccncc1)c1c(-c2ccccc2)c2ccncc2[nH]c1=O [Compound 23] : 10 to 20 µM

IC50 reported for this molecule O=C(/C=C/c1ccccn1)c1c(-c2ccc(OC(F)(F)F)cc2)c2cc(Cl)ccc2[nH]c1=O [Compound 88] : 2 to 10 µM

IC50 reported for this molecule COc1cncc(/C=C/C(=O)c2c(-c3ccccc3)c3cc(Cl)ccc3[nH]c2=O)c1 [Compound 66] : 2 to 10 µM

IC50 reported for this molecule O=C(/C=C/c1ccccn1)c1c(-c2cncc(F)c2)c2cc(Cl)ccc2[nH]c1=O [Compound 100] : 10 to 20 µM

====

Target: EmCV Cap-independent translation
Assay: In vitro translation assay, FF-EmCV-Ren construct, cap-independent (Ren luciferase)
Description: The bicistronic dual-reporter constructs that contain the firefly luciferase (FF) sequence, followed by the (encephalomyocarditis virus) EmCV and Hepatitis C virus (HCV) IRES, respectively, and the Renilla reniformis (Ren) luciferase sequence, has been previously described (Bordeleau Me., et al. Functional characterization of IRESes by an inhibitor of the RNA helicase eIF4A. Nature chemical biology. 2006; 2:213-20). […]
pIC50: −log10 of the molar value.
measured.quantity: pIC50

Item O=C(/C=C/c1cc2ccccc2s1)c1c(-c2ccccc2)c2cc(Cl)ccc2[nH]c1=O [Compound 36] was tested on EmCV Cap-independent translation; the reported pIC50 is 4.70 to 5.00

Item Cc1ccc(/C=C/C(=O)c2c(-c3ccccc3)c3cc(Cl)ccc3[nH]c2=O)cc1 [Compound 34] was tested on EmCV Cap-independent translation; the reported pIC50 is 5.00 to 5.70

Item O=C(/C=C/c1ccc(Cl)s1)c1c(-c2ccccc2)c2cc(Cl)ccc2[nH]c1=O [Compound 113] was tested on EmCV Cap-independent translation; the reported pIC50 is 5.00 to 5.70

Item O=C(/C=C/c1ccccc1)c1c(-c2cccnc2)c2cc(Cl)ccc2[nH]c1=O [Compound 7] was tested on EmCV Cap-independent translation; the reported pIC50 is 4.70 to 5.00

Item N#Cc1ccc(-c2c(C(=O)/C=C/c3ccccn3)c(=O)[nH]c3ccc(Cl)cc23)cc1 [Compound 90] was tested on EmCV Cap-independent translation; the reported pIC50 is 5.00 to 5.70

Item O=C(/C=C/c1nc2ccccc2[nH]1)c1c(-c2ccc(OC(F)(F)F)cc2)c2cc(Cl)ccc2[nH]c1=O [Compound 2] was tested on EmCV Cap-independent translation; the reported pIC50 is 5.00 to 5.70

Item O=C(/C=C/c1ccc(F)cc1C(F)(F)F)c1c(-c2ccccc2)c2cc(Cl)ccc2[nH]c1=O [Compound 49] was tested on EmCV Cap-independent translation; the reported pIC50 is 5.00 to 5.70

Item O=C(/C=C/c1cncc(F)c1)c1c(-c2cncc(F)c2)c2cc(Cl)ccc2[nH]c1=O [Compound 99] was tested on EmCV Cap-independent translation; the reported pIC50 is 5.00 to 5.70

Item O=C(/C=C/c1ccccn1)c1c(-c2ccc(C(F)(F)F)cc2)c2cc(Cl)ccc2[nH]c1=O [Compound 84] was tested on EmCV Cap-independent translation; the reported pIC50 is 5.00 to 5.70

Item O=C(/C=C/c1ccccc1)c1c(C2CCCCC2)c2cc(Cl)ccc2[nH]c1=O [Compound 12] was tested on EmCV Cap-independent translation; the reported pIC50 is 4.70 to 5.00

Item COCCn1c(/C=C/C(=O)c2c(-c3ccccc3)c3cc(Cl)ccc3[nH]c2=O)nc2ccccc21 [Compound 57] was tested on EmCV Cap-independent translation; the reported pIC50 is 5.00 to 5.70

Item O=C(/C(Br)=C/c1cncc(F)c1)c1c(-c2ccccc2)c2cc(Cl)ccc2[nH]c1=O (single isomer, unassigned) [Compound 110] was tested on EmCV Cap-independent translation; the reported pIC50 is 5.00 to 5.70

Item O=C(/C=C/c1cncc(C(F)(F)F)c1)c1c(-c2ccccc2)c2cc(Cl)ccc2[nH]c1=O [Compound 76] was tested on EmCV Cap-independent translation; the reported pIC50 is 5.00 to 5.70

Item O=C(/C=C/c1c(F)cccc1F)c1c(-c2ccccc2)c2cc(Cl)ccc2[nH]c1=O [Compound 42] was tested on EmCV Cap-independent translation; the reported pIC50 is 5.00 to 5.70

Item COCc1cncc(/C=C/C(=O)c2c(-c3ccccc3)c3cc(Cl)ccc3[nH]c2=O)c1 [Compound 73] was tested on EmCV Cap-independent translation; the reported pIC50 is 5.00 to 5.70

Item O=C(/C=C/c1ccccn1)c1c(-c2cncc(Br)c2)c2cc(Cl)ccc2[nH]c1=O [Compound 104] was tested on EmCV Cap-independent translation; the reported pIC50 is 5.00 to 5.70
